- TARGET OR TEST SYSTEM: T1, G1 APOL1 (Homo sapiens, UniProt O14791, I384M/S342G)
- T1 sequence (O14791 28-398 S342G/I384M): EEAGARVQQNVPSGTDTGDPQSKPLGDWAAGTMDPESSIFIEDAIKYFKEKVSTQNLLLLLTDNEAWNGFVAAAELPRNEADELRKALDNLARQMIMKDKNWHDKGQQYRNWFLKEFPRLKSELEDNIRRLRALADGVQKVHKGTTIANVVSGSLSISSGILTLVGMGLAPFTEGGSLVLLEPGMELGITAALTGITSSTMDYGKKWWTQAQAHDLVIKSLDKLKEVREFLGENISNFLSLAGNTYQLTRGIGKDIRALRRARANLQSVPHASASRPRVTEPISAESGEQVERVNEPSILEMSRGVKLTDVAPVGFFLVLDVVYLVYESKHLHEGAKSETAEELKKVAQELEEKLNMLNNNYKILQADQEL
- METHOD DESCRIPTION: Acute APOL1 Thallium Assay with inducible stable clones of HEK 293 cells
- CONDITIONS: HEK T-Rex tetracycline-inducible cells expressing G1 APOL1 (clone G1 DC3.25); inhibition of thallium flux rate
- From the text: Acute APOL1 Thallium Assay with Inducible Stable Clones of HEK 293 Cells Apolipoprotein L1 (APOL1) proteins form potassium-permeable cation pores in the plasma membrane. APOL1 risk variants (G1 and G2) induce greater potassium flux than G0 in HEK293 cells. […] The increase of fluorescence in the assay represents the influx of T1+ into the cell specifically through the potassium channel (i.e. through APOL1 pores), providing a functional measurement of potassium channel/pore activity. […]
pIC50: −log10 of the molar value.
Each record here notes measured pIC50.
QUANTITY: pIC50

COMPOUND	RECORDED VALUE
O=C(CCc1c(-c2ccc(F)c(F)c2)[nH]c2c(F)cc(F)cc12)N[C@@H]1C(=O)NC[C@H]1O	> 6.60
Cc1c(F)ccc2c(CCC(=O)N[C@@H]3C(=O)NC[C@H]3O)c(-c3ccccc3)[nH]c12	> 6.60
COc1cccc2c(CCC(=O)N[C@H]3CCNC3=O)c(-c3ccc(F)cc3)[nH]c12	< 6.00
O=C(CCc1c(-c2ccccc2)[nH]c2c(F)cccc12)N[C@@H]1C(=O)NC[C@H]1O	> 6.60
O=C(CCc1c(-c2cc(F)cc(F)c2)[nH]c2ccccc12)N[C@@H]1C(=O)NC[C@H]1O	6.00 to 6.60
O=C(CCc1c(-c2ccc(Cl)c(F)c2)[nH]c2ccccc12)N[C@@H]1C(=O)NC[C@H]1O	> 6.60
O=C(CCc1c(-c2ccc(F)cc2)[nH]c2ccc(F)cc12)N[C@H]1CCNC1=O	> 6.60
O=C(CCc1c(-c2ccc(OC(F)F)cc2)[nH]c2c(F)cc(F)cc12)N[C@H]1CCNC1=O	> 6.60
O=C(CCc1c(-c2ccc(F)cc2)[nH]c2c(F)cc(C(F)(F)F)cc12)N[C@@H]1C(=O)NC[C@H]1O	> 6.60
O=C(CCc1c(-c2ccccc2)[nH]c2c(C3CC3)cccc12)N[C@@H]1C(=O)NC[C@H]1O	> 6.60
O=C(CCc1c(-c2ccc(F)cc2)[nH]c2c(F)cc(F)cc12)N[C@H]1CCNC1=O	> 6.60
O=C(CCc1c(-c2ccc(F)cc2)[nH]c2ccc(F)cc12)NC1CCNC1=O (stereo not drawn)	> 6.60
N#Cc1cccc(-c2[nH]c3ccc(F)cc3c2CCC(=O)N[C@H]2CCNC2=O)c1	< 6.00
COc1ccc2[nH]c(-c3ccc(F)cc3)c(CCC(=O)N[C@H]3CCNC3=O)c2c1	< 6.00
O=C(CCc1c(-c2ccc(F)cc2)[nH]c2c(F)cc(Cl)cc12)N[C@@H]1C(=O)NC[C@H]1O	> 6.60
